Give Ganglion Effect for every item shown.
- Target Desc: ganglionic-type neuronal nicotinic receptors (rat pheochromocytoma clonal line PC12) (Rattus norvegicus, UniProt P04757+P12392)
- Construct: tumor of the rat adrenal medulla expressing ganglionic-typeneuronal nicotinic receptors; endogenous in cells; host or cells: PC12 (rat pheochromocytoma clonal line), intact cells
- Sequence (P04757 26-499): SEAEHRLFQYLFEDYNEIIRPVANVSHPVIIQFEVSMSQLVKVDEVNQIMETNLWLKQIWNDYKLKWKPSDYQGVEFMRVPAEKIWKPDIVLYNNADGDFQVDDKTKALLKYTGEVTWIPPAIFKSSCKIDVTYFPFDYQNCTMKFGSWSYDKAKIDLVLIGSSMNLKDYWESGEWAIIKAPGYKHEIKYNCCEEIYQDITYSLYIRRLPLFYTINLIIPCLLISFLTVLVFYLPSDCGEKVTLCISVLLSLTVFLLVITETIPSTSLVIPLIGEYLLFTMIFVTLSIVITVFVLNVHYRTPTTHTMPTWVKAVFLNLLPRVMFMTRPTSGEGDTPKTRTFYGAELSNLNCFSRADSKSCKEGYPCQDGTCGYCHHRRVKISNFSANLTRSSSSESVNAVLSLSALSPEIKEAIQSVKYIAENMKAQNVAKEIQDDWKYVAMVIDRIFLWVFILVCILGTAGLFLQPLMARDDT
- Sequence (P12392 21-495): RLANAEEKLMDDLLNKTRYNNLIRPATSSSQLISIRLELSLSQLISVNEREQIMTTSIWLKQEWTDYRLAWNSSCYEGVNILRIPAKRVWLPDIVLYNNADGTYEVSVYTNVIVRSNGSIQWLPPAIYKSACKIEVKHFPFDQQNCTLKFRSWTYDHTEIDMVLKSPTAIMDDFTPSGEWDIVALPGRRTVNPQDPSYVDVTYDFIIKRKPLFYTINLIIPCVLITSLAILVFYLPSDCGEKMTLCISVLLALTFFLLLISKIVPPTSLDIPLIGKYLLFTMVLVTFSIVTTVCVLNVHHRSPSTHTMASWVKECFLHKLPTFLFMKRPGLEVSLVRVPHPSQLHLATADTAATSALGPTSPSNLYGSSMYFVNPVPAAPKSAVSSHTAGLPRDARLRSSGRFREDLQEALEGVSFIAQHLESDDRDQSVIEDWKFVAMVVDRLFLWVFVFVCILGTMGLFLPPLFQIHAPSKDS
- Type: cell-based
- Applied Conditions: pc12 cells

q: Which Ganglion Effect value belongs to CN1C2CCC(CC2)C1c1cccnc1 (racemic) ?
a: 21

q: Try this compound next: CN1[C@H](c2cccnc2)[C@@H]2C=C[C@H]1C2 (relative stereo)
a: 18

q: Try this compound next: C1=C[C@H]2CC[C@@H]1[C@@H](c1cccnc1)N2 (relative stereo)
a: 12

q: Try this compound next: CN1[C@H]2C=C[C@H](C2)[C@@H]1c1cccnc1 (relative stereo)
a: 55

q: Try this compound next: CN1[C@H](c2cncc(Br)c2)[C@@H]2C=C[C@H]1C2 (relative stereo)
a: 4

q: Try this compound next: CN1[C@H]2C=C[C@H](CC2)[C@@H]1c1cccnc1 (relative stereo)
a: 8

q: Try this compound next: O=C(O)/C=C/C(=O)O.c1cncc(C2NC3CCC2CC3)c1 (racemic)
a: 3

q: Try this compound next: C1=C[C@H]2C[C@@H]1[C@@H](c1cccnc1)N2Cc1ccccc1 (relative stereo)
a: 11

q: Try this compound next: CN1[C@H](c2cccnc2)[C@@H]2C=C[C@H]1CC2 (relative stereo)
a: 0

q: Try this compound next: CCN1[C@H](c2cccnc2)[C@@H]2C=C[C@H]1C2 (relative stereo)
a: 2

q: Try this compound next: C1=C[C@H]2CC[C@@H]1[C@H](c1cccnc1)N2 (relative stereo)
a: 65

Reference source for all entries: patent US5922723A
